src = the supplement of paper PMC7877785

Each entry below lists one item and its recorded self-splicing fitness (ln) value.
Test: self-splicing fitness, log relative to wild type (ln ratio); higher = more splicing; Tetrahymena group I intron in knt gene, E. coli kanamycin selection, DiMSum; sequences stand for … in CUCUCU…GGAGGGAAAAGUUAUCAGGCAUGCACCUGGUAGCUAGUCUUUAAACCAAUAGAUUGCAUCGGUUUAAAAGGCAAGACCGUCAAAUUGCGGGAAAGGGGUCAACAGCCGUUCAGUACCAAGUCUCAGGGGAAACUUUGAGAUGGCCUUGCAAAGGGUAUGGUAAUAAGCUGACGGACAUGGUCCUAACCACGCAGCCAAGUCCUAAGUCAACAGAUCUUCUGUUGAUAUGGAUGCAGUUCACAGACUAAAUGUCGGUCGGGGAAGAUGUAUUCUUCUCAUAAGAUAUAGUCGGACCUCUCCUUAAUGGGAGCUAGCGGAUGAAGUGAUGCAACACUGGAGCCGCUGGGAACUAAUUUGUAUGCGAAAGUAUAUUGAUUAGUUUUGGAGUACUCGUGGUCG;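 note: selection with 25 µg/mL kanamycin versus none on LB agar overnight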
Conditions: 37 °C
reported_metric: self-splicing fitness (ln)

>  <construct_sequence>
AGGAAGCAAUAUUACGAUUG

>  <readout_number>
-3.3

$$$$
>  <construct_sequence>
AACAAGCAAUAUUACGGCAC

>  <readout_number>
-0.265

$$$$
>  <construct_sequence>
GUUAAGCAAUAUUACGAUAG

>  <readout_number>
-2.07

$$$$
>  <construct_sequence>
UAGAAGCAAUAUUACGCCGA

>  <readout_number>
-1

$$$$
>  <construct_sequence>
AAUGAGCAAUAUUACGAAAA

>  <readout_number>
-2.1

$$$$
>  <construct_sequence>
UGUCAGCAAUAUUACGCUUG

>  <readout_number>
-0.432

$$$$
>  <construct_sequence>
AGCCAGCAAUAUUACGAUAG

>  <readout_number>
-2.35

$$$$
>  <construct_sequence>
CUAUAGCAAUAUUACGGCAA

>  <readout_number>
-2.63

$$$$
>  <construct_sequence>
CUGAAGCAAUAUUACGCGGG

>  <readout_number>
-1.83

$$$$
>  <construct_sequence>
CACCAGCAAUAUUACGACGU

>  <readout_number>
-1.11

$$$$
>  <construct_sequence>
AUCCAGCAAUAUUACGUUAA

>  <readout_number>
-1.1

$$$$
>  <construct_sequence>
AUAAAGCAAUAUUACGGUAC

>  <readout_number>
-2.6

$$$$
>  <construct_sequence>
GAUAAGCAAUAUUACGCGCU

>  <readout_number>
-1.47

$$$$
>  <construct_sequence>
AUGUAGCAAUAUUACGUGAC

>  <readout_number>
-0.782

$$$$
>  <construct_sequence>
CUCCAGCAAUAUUACGACAC

>  <readout_number>
-1.12

$$$$
>  <construct_sequence>
AAUCAGCAAUAUUACGCAAU

>  <readout_number>
-0.0563

$$$$
